Measurement Target: GST tagged LXRbeta LBD (ligand binding domain) (Homo sapiens, UniProt P55055)
Sequence (P55055 222-460 limits assumed): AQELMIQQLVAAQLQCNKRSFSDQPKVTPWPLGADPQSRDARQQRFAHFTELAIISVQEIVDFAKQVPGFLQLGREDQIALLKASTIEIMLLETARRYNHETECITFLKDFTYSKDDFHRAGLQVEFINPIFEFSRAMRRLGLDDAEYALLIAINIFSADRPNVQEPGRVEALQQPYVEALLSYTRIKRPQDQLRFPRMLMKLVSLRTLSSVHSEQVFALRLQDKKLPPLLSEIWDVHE
Assay: LanthaScreen TR-FRET Liver X Receptor Coactivator Assay, LXR beta-LBD (co-activator recruitment; IP and % Emax relative to T0901317)
Condition Parameters: Inflection Point of co-activator recruitment, LXR beta-LBD, TR-FRET
Endpoint: log10(EC50) (log10 of the value in nM)
Use the decimal logarithm of EC50 (nM).

// returns reported log10(EC50) for input COc1cccc([C@@](O)(C(=O)N(C)CCCC2(F)CCN(c3ccc(C(=O)N(C)C)c(Cl)n3)CC2)C(F)(F)F)c1
2.18

What do you get for COc1cccc([C@@](O)(C(=O)NCC[C@H]2CC23CCN(c2ccc(C(=O)N(C)C(C)C)c(Cl)c2)CC3)C(F)(F)F)c1 ?
2.48

What do you get for CN(C)C(=O)c1ccc(N2CCC([C@H]3C[C@H]3CN(C)C(=O)[C@](O)(c3cccc(OC(F)(F)F)c3)C(F)(F)F)CC2)nc1Cl ?
1.36

What do you get for CN(C)C(=O)c1ccc(N2CCC(CCCNC(=O)C(O)(c3ccccc3)C(F)(F)F)CC2)cc1Cl (stereo not shown) ?
2.79

What do you get for CNC(=O)c1ccc(N2CCC3(CC2)CC(CCN(C)C(=O)[C@](O)(c2cccc(OC)c2)C(F)(F)F)C3)nc1Cl ?
2.15

What do you get for COc1cccc([C@@](O)(C(=O)N(C)CCCC2CCN(c3ccc(C(=O)N(C)C)c(C4CC4)n3)CC2)C(F)(F)F)c1 ?
3.76

What do you get for CN(C)C(=O)c1ccc(N2CCC([C@@H]3C[C@H]3CN(C)C(=O)[C@@](O)(c3ccccc3)C(F)(F)F)CC2)nc1Cl ?
2.77

What do you get for CNC(=O)c1ccc(N2CCC(CC3CC(NC(=O)[C@](O)(c4cccc(OC)c4)C(F)(F)F)C3)CC2)cc1Cl (stereo partly shown) ?
2.81

What do you get for CN(C)C(=O)c1ccc(N2CCC([C@H]3C[C@H]3CN(C)C(=O)[C@](O)(c3ccccc3)C(F)(F)F)CC2)nc1Cl ?
1.00

What do you get for CN(C)C(=O)c1ccc(N2CCC(C)(CCCN(C)C(=O)[C@](O)(c3ccccc3)C(F)(F)F)CC2)nc1Cl ?
1.26

What do you get for CN(C)C(=O)c1ccc(N2CCC(CCCNC(=O)C(C)(C)c3ccccc3)CC2)cc1Cl ?
2.75

What do you get for COc1cccc([C@@]2(C(=O)N(C)CCCC3CCN(c4ccc(C(=O)N(C)C)c(Cl)n4)CC3)CCCO2)c1 ?
2.00

What do you get for COc1cccc([C@@](O)(C(=O)N(C)CCCC2CCN(c3ccc(C(=O)N(C)Cc4noc(C5CC5)n4)c(Cl)n3)CC2)C(F)(F)F)c1 ?
1.04
